Tested on: NCI-H522 lung
Experiment: NCI tumour cell line growth inhibition, 48 h
For each record, write down the corresponding log10 of TGI.
// do not treat as linear: log10 of TGI, unit µM

Q: Data request, read-out log10 of TGI, for C=CCC1(CN(C)C)CC/C(=C\c2ccc3c(c2)OCO3)C1=O (stereo unspecified)
A: 1.60

Q: What value of log10 of TGI has been recorded for this entry: Clc1ccc(C2SCc3nc4ccccc4n32)cc1 (stereo unspecified)
A: 1.65

Q: # get_value(readout='log10 of TGI', item= CSc1ccc(N2C(=O)C3c4[nH]c5ccccc5c4C4CCC(C(C)(C)C)CC4C3C2=O)cc1 (stereo unspecified) )
A: 1.61

Q: # lookup: log10 of TGI of NS(=O)(=O)c1ccc(-n2nc3c(c2-c2cccs2)Cc2ccccc2-3)cc1
A: 1.47

Q: Which log10 of TGI is reported for this molecule? O=C(O)c1cc(NCc2cc(O)ccc2O)ccc1O
A: 1.61

Q: Quick check: log10 of TGI of Cc1cc(C)[n+]2c(c1)C=CC2 ?
A: 1.69

Q: Fill in the blank: the reported log10 of TGI of Cc1cc(N(CCC#N)S(=O)(=O)c2ccccc2)ccc1C=Nc1ccc(C(=O)O)cc1 is ____.
A: 0.96

Q: # query: log10 of TGI of entry CCN1CCN(C(=O)[C@]23CC[C@@H](C)[C@H](C)[C@@H]2C2=CC[C@@H]4[C@@]5(C)CCC(=O)C(C)(C)[C@@H]5CC[C@@]4(C)[C@]2(C)CC3)CC1
A: 0.24

Q: Quick one: log10 of TGI for CN1C(=O)N(C)C2C1NC(=S)N2/N=C/C=C/c1ccccc1[N+](=O)[O-] (stereo unspecified) ?
A: 0.98

Q: Which value of log10 of TGI has been reported for Clc1cnc(Nc2ccc(OCCN3CCCC3)cc2)nc1NCc1ccco1 in the records?
A: 0.60

Q: What measured log10 of TGI goes with CN1CCN(Cc2ccc(NC(=O)c3cncc(C#Cc4ccc(N)nc4)c3)cc2C(F)(F)F)CC1 ?
A: 0.79

Q: GET /values?readout=log10 of TGI&item= CC1(C)C2CC3C(C)(C2)C31c1cc(Cl)ccc1N (stereo unspecified)
A: 1.29

Q: Which value of log10 of TGI has been reported for CC(NNC(=S)N1CCN(c2ccccn2)CC1)c1nccc2ccccc12 (stereo unspecified) in the records?
A: 1.15

// data source = PubChem BioAssay (NCI)
